Recorded values, source the domain aggregation screens of Martell et al. (2025).

Assay: soluble fraction after stress (log2 fold change); higher = more stays soluble; pooled small domains, quantitative proteomics
Conditions: stress: 50 degC
Measured soluble fraction (log2) values are reported for all entries that follow.
experimental-readout: soluble fraction (log2)

- sequence-data: "HMDKSFLQSLHLIALGIVKNQMDPWELVNGWVEYYLKNKDKYIDHPNLKAVAVLKMKGLFIDHFRKS"
  obs-value: -4.84
- sequence-data: "HMSNIVNYEVYVYQNDAWDLLARYPSEKRAEAIEYAKSTEFSLNRPTKVIRETYDLDTQKFQEALIYLSE"
  obs-value: -0.239
- sequence-data: "HMERLKRVTLSLNQSNYSVTEIARRLQAITGIKDITVVEDEQAVYLKVDPATFDLTLAQQAV"
  obs-value: -0.218
- sequence-data: "HMIKITLGWVISVRRHDLGYTQHKMARAVGISDLTVSRIESDDGITPDNNTLRKIAEYLKIDYNSLLTLK"
  obs-value: -1.73
- sequence-data: "HMSSQGQNTKTGTVTASALYVRSGAGTNYSQIGYLLKNTKVEIVGQTGSWYKIKFGSGTGYVSSKYIK"
  obs-value: -0.652
- sequence-data: "HMIYQNVINLLKNRLNSSIYNIGDLLPSEKELAEHYDVSRNTLRKALKTLEEEGMIERRHGSGTYLRNK"
  obs-value: -0.969
- sequence-data: "HMAPQAETLLRQVMALPSKDRAVLYLHYYEGFSTREVGDMLHISQSAVTTRLLRARKKLKEIL"
  obs-value: 0.0889
- sequence-data: "HMGLNVSYRMDGENVVETIIFSGATMIRTVTPTGTMTIKTIENGSTSTAKVNADYSVYKKIYEAQY"
  obs-value: -2.59

---

Reported values of soluble fraction (log2) for individual entries
Experiment: soluble fraction after stress (log2 fold change); higher = more stays soluble; pooled small domains, quantitative proteomics
Details: stress: 50 degC
experimental-readout: soluble fraction (log2)

- sequence-data: "HMDDIVPHSTKNHIIKTFLSLMNSLDIITDKNKKSLNQNVHIIFNKFNFSKKEANLFIGVLNRIQKALK"
  obs-value: 0.552
- sequence-data: "HMAIKTGAVTGHGVKVRKGPSTNEKAIHDVLYGSRLQILEEKNGFLKAKFEDGTTGWISKQFVTTTDKNLL"
  obs-value: 0.223
- sequence-data: "HMESRETGLPVVIISDGRILQDNLKRRGLDLSWLDKQLAEHGYPDFRDVFLLTVDEAGGVYFVPRE"
  obs-value: 0.333
- sequence-data: "HMETLGADLRALRKSRGLTLLDMAESLGRSVGWLSQVERDLSDPSISDLREIAELLGVPISMLFRH"
  obs-value: -2.86
- sequence-data: "HMLPGKEIPLPEFLREAFARNEPALENFQNLAPSYRRQYILWITSAKTPETVQKRISESIGLLKENRKLGM"
  obs-value: 0.0472
- sequence-data: "HMDTPMQEAVLQRLRDKVAQAAAGSKLPTVRQLIADYGVGQHVIQAALEKLRTEGLITSHVGKGTFVG"
  obs-value: 0.447
- sequence-data: "HMKGTVLAPGIILNADDQRFTYLQEDVASVAKDGAAIVLKQGDEVDFIADGQTAKQIYLTKT"
  obs-value: 0.0649
- sequence-data: "HMANADVVLVDLDKEYTVDAAKFHSVVKHSPFNGFAVKGAPVLTIVRGTVVAENGEVVGQPGHSKMVRP"
  obs-value: -0.0579
- sequence-data: "HMGQERAVPDVKGQSFDMAQGNISRAGLKAVVTDSVYDSYARPGTVVEQSPIPLAKIKRGGTVYLTLVA"
  obs-value: -0.105
- sequence-data: "HMFEDEYLETMYAFYETDPQALVRTGDLASSLKVSPASATEMVQRLASKGFVDYIPYKGASLTELGLAM"
  obs-value: -0.184
- sequence-data: "HMDVSEITTIKWIIKETKLGINEKILIYVNSKNFTVETLMEGFEIMSKYLVENVSSDKIVYIKN"
  obs-value: -0.179
- sequence-data: "HMDYTPIEVKDLPQAIQDALTKNFSEYTVKSAAYQEDEDGVKIYQVTVVDEEGTEANIFFTEKGE"
  obs-value: 0.0163
- sequence-data: "HMDFDPDVPSREDILQAFRDSKPPLTVNALISEFGLSRDASIVGLERRMGAMQRDGQLEQTPSGWQLSV"
  obs-value: -0.158
- sequence-data: "HMEAEQLEAIRSALQQLSDMNRTVFNLHVVDGYKHEEIAAMLNITTGTSKAHLHRAKKRLRELID"
  obs-value: -0.975
- sequence-data: "HMAEVIYGAGKTPAQMLGILRTMQAHGQKTVLITRLREEAAEEIGREIPLQYDKTAGVGIVGTLPQPDG"
  obs-value: -0.0493
- sequence-data: "HMNTEVDKVLLRSGEAYFGEVLLRNDELVMMKTQDGARFQFPVSEIKSIEKVSVADALRHINS"
  obs-value: 0.0758
- sequence-data: "HMTGINMSYEEYKAMADIIVPLIKAGHSPYHIVTNHPELNISEKTLYNYIENGIFREFGLLDINL"
  obs-value: -0.313

---

Assay: soluble fraction after stress (log2 fold change); higher = more stays soluble; pooled small domains, quantitative proteomics
Conditions: stress: 50 degC
# binning rule on soluble fraction (log2): low end = under -0.3, middle = from -0.3 up to 0.06, high end = 0.06 and over

- sequence-data: "HMQIMVVDEADRMLDMGFIPDIERIFQLTPFTRQTLFFSATMAPEIERITDTFLHSPERIEVAR"
  label: "middle"
- sequence-data: "HMEKPTRNKLVEIIIQNKNVTTEQMANLLNISRRAVAKHIKKLQEEGIIRRIGPDFGGHWEIVK"
  label: "middle"
- sequence-data: "HMENHILIIDDDLMLLKTAEEILSDQYNVSVAKSGIQALNLLNKNIIPDLILLDIDMPQMDGYETL"
  label: "middle"
- sequence-data: "HMKSDVVFDITDGTVKAMLKFNRSDVTILNNDGKNYYLFTANGEFTFKYQDGSGEYYEKTVYVDWLEDE"
  label: "low end"
- sequence-data: "HMAEPLYKQVKNKIIQNLTSDEWKPGSVIPSETKLAETYGVGVSTIRMAIGELVAARILIRRQGKGTFVSS"
  label: "low end"
- sequence-data: "HMEEMTIRQKRTMIFFIEATKHILQEDGYDHLTIREIAQRAGYNAATLYHYFRDLDELIIYGSVG"
  label: "middle"
- sequence-data: "HMDEEDVLNELIRRLALTADDRLLLSLSYEDGLSSRKIATLLETSAATVQRRLAGLHHQLEQALRVMGLA"
  label: "low end"
- sequence-data: "HMIFEETVFKDIAFGPKNMGLSEAEIKRRVYETAENIGLSQELMERSPFELSGGQKRRVAIAGVMAMEP"
  label: "high end"
- sequence-data: "HMAAEGARNNSLFNSLRERALEVSSHNELEQIAFKMNETNIPPLRASEVISVVNSVWKNRISNQIIP"
  label: "high end"
- sequence-data: "HMGGEHPIPEDWAVNEANYEHGAKFYGYTRAHVDAEAQAFRDQYAANGKKYVDWDAHFRTFMRWQNERRYG"
  label: "middle"
- sequence-data: "HMPFDWSAFDWKGWADEALAIIKTANQDQMNKWTEDNEKIIVQAETAAPDIYKTVGDEYDKKMESFN"
  label: "high end"
- sequence-data: "HMDGIPVPDVKGTVEAEATATLKNSGFEVTKTQDFSDTVEAGKVISQNPAGGSSAASGSSVTLVISQGPN"
  label: "middle"
- sequence-data: "HMGFSKGKRDLIRMIKLAIRELADDNGRAQIEDVITRLVQEGHSRDEIRLQIDMFLRQGEAMEPKQGIIKL"
  label: "high end"
- sequence-data: "HMESVDRIYERVRRYADDVGTAKIPMKELDDDGPLGTAVSRIRERRKRGELTEEWEARFETLPGWTWAA"
  label: "middle"
- sequence-data: "HMGQGSAFVYYEVLPKQTEYSLTRKLGLGYADLLSLNPQLARGLQAGMVLKIPRDKAGNLEVKNDLILE"
  label: "middle"

---

Catalogue of sequences with associated soluble fraction (log2)
Experiment: soluble fraction after stress (log2 fold change); higher = more stays soluble; pooled small domains, quantitative proteomics
Conditions: stress: 50 degC
experimental-readout: soluble fraction (log2)

- sequence-data: "HMLDIPEVGQAVQVRGRLGTVFSVAPYDGREGRLHLVTVDYLDDARPPENDEILWEIESGARILG"
  experimental-readout: "soluble fraction (log2)"
  obs-value: -0.523
- sequence-data: "HMAEVDREEALRIALAHAAVARRDVRNLKIERGEENGVPVYKVEFETAFGDFDVAVSRRSGDVVDAD"
  experimental-readout: "soluble fraction (log2)"
  obs-value: 0.0689
- sequence-data: "HMHTPSGALLSAIEKEWGSFDNFKKEFTTAATSLFGSGWVWLAKDKKGKLYILSENNAGNPITKGYTPILG"
  experimental-readout: "soluble fraction (log2)"
  obs-value: -0.262
- sequence-data: "HMYRYGETPMVVVPDLIGRTVSDIYEEMNADFRLEKFGNGNTVISQAPKPGERVEQGSVIRVYLSGQDQ"
  experimental-readout: "soluble fraction (log2)"
  obs-value: 0.157
- sequence-data: "HMHNISQTGRRIAGMTQERWAEALDISVESVRLYESGRGMPSDDVATRMVEVSGAPVLGYWH"
  experimental-readout: "soluble fraction (log2)"
  obs-value: -0.407
- sequence-data: "HMPGTEAQDGEVLLDALRRIHPDSSTGTLRRMLTQGRVQVDGTTVHAAKAELTSGQHVEVVAR"
  experimental-readout: "soluble fraction (log2)"
  obs-value: 0.0101
- sequence-data: "HMVSAMLLHKKEILNLLAEEPEALHFASLLRAFGGRHIKNELKQIVDDLVRSGEILRLRGNRYTLPGADN"
  experimental-readout: "soluble fraction (log2)"
  obs-value: -1.21
- sequence-data: "HMLHNEFINDRIQSAINNLSEHFKIVIILRDIQELSYEEISNIVEVPLGTIKSRINRARIQLQAELLDL"
  experimental-readout: "soluble fraction (log2)"
  obs-value: 0.269
